Measured IC50 accompanies every entry in the list below.
Target: Human ATX protein (Homo sapiens)
Construct: made in house
Assay: Autotaxin (ATX) assay, FRET with FS-3 substrate
Format: biochemical
Conditions: upper bound bins (no greater than 100, 250 or 500 nM); FS-3 2 μM, ATX 1.0 μg/mL
measured-quantity: IC50

molecule | target-under-test | measured-quantity | value-observed
CC1(C)CN(C(=O)c2cc3n(n2)CCN(C(=O)OCc2cc(C(F)(F)F)cc(C(F)(F)F)c2)C3)CCN1 | Human ATX protein (Homo sapiens) | IC50 | ≤ 100 nM
O=C(O)C1CNCCN1C(=O)c1cc2n(n1)CCCN(C(=O)OCc1cc(C(F)(F)F)cc(C(F)(F)F)c1)C2 (stereo not drawn) | Human ATX protein (Homo sapiens) | IC50 | ≤ 100 nM
CN1C2CCC1CC(c1cc3n(n1)CCCN(C(=O)OCc1cc(C(F)(F)F)cc(C(F)(F)F)c1)C3)C2 (stereo not drawn) | Human ATX protein (Homo sapiens) | IC50 | ≤ 100 nM
O=C(OCc1cc(Cl)cc(C(F)(F)F)c1)N1CCCn2nc(C(=O)N3C[C@@H]4C[C@H]3CN4)cc2C1 | Human ATX protein (Homo sapiens) | IC50 | ≤ 100 nM
CC(c1cc2n(n1)CCN(C(=O)OCc1cc(C(F)(F)F)cc(C(F)(F)F)c1)C2)N1CCCCC1 (stereo not drawn) | Human ATX protein (Homo sapiens) | IC50 | ≤ 100 nM
CNCc1cc2n(n1)CCCN(C(=O)OCc1cc(C(F)(F)F)cc(C(F)(F)F)c1)C2 | Human ATX protein (Homo sapiens) | IC50 | ≤ 500 nM
O=C(OCc1cc(Cl)cc(C(F)(F)F)c1)N1CCCn2nc(CNC3=NCCS3)cc2C1 | Human ATX protein (Homo sapiens) | IC50 | ≤ 100 nM
O=C(OCc1cc(C(F)(F)F)cc(C(F)(F)F)c1)N1CCCn2nc(N3CCN(CCO)CC3)cc2C1 | Human ATX protein (Homo sapiens) | IC50 | ≤ 100 nM
O=C(O)c1nn2c(c1Cl)CN(C(=O)OCc1cc(C(F)(F)F)cc(C(F)(F)F)c1)CCC2 | Human ATX protein (Homo sapiens) | IC50 | ≤ 100 nM
O=C(OCc1cc(Cl)cc(C(F)(F)F)c1)N1CCCn2nc(C(=O)N3CC4CCC(C3)N4)cc2C1 | Human ATX protein (Homo sapiens) | IC50 | ≤ 100 nM
CN1CCC(c2cc3n(n2)CCCN(C(=O)OCc2cc(C(F)(F)F)cc(C(F)(F)F)c2)C3)C1 (stereo not drawn) | Human ATX protein (Homo sapiens) | IC50 | ≤ 250 nM
Cc1nc(-c2cc3n(n2)CCCN(C(=O)OCc2cc(C(F)(F)F)cc(C(F)(F)F)c2)C3)no1 | Human ATX protein (Homo sapiens) | IC50 | ≤ 100 nM
O=C(OCc1cc(Cl)cc(C(F)(F)F)c1)N1CCCn2nc(C(=O)N3CCNCC3C(F)(F)F)cc2C1 (stereo not drawn) | Human ATX protein (Homo sapiens) | IC50 | ≤ 100 nM
CN1CCN(C(=O)c2cc3n(n2)CCCN(C(=O)OCc2cc(C(F)(F)F)cc(C(F)(F)F)c2)C3)CC1 | Human ATX protein (Homo sapiens) | IC50 | ≤ 100 nM
CC(NC1=NCCN1)c1cc2n(n1)CCCN(C(=O)OCc1cc(Cl)cc(C(F)(F)F)c1)C2 (stereo not drawn) | Human ATX protein (Homo sapiens) | IC50 | ≤ 250 nM
O=C(OCc1cc(Cl)cc(Cl)c1)N1CCCn2nc(C(=O)N3C4CCCC3CCC4)cc2C1 | Human ATX protein (Homo sapiens) | IC50 | ≤ 100 nM
CN1C2CCC1CN(C(=O)c1cc3n(n1)CCCN(C(=O)OCc1cc(C(F)(F)F)cc(C(F)(F)F)c1)C3)C2 | Human ATX protein (Homo sapiens) | IC50 | ≤ 100 nM
O=C(OCc1cc(C(F)(F)F)cc(C(F)(F)F)c1)N1CCCn2nc(NC3CCCCNC3)cc2C1 (stereo not drawn) | Human ATX protein (Homo sapiens) | IC50 | ≤ 100 nM
O=C(NCCO)c1cc2n(n1)CCN(C(=O)OCc1cc(C(F)(F)F)cc(C(F)(F)F)c1)C2 | Human ATX protein (Homo sapiens) | IC50 | ≤ 100 nM
O=C(O)c1cc2n(n1)CCCN(C(=O)OCc1cc(C(F)(F)F)cc(C(F)(F)F)c1)C2 | Human ATX protein (Homo sapiens) | IC50 | ≤ 100 nM
Cc1cc(-c2cc3n(n2)CCCN(C(=O)OCc2cc(C(F)(F)F)cc(C(F)(F)F)c2)C3)ccn1 | Human ATX protein (Homo sapiens) | IC50 | ≤ 100 nM
O=C(O)Cc1cc2n(n1)CCCN(C(=O)OCc1cc(C(F)(F)F)cc(C(F)(F)F)c1)C2 | Human ATX protein (Homo sapiens) | IC50 | ≤ 100 nM
O=C(NC1CCCC1)c1cc2n(n1)CCCN(C(=O)OCc1cc(Cl)cc(Cl)c1)C2 | Human ATX protein (Homo sapiens) | IC50 | ≤ 100 nM
O=C(O)C1CN(C(=O)c2cc3n(n2)CCCN(C(=O)OCc2cc(C(F)(F)F)cc(C(F)(F)F)c2)C3)CCN1 (stereo not drawn) | Human ATX protein (Homo sapiens) | IC50 | ≤ 100 nM
O=C(OCc1cc(C(F)(F)F)cc(C(F)(F)F)c1)N1CCn2c(nnc2C(F)(F)F)C1 | Human ATX protein (Homo sapiens) | IC50 | ≤ 500 nM
O=C(O)C1CN(C(=O)c2cc3n(n2)CCCN(C(=O)OCc2cc(Cl)cc(C(F)(F)F)c2)C3)CCN1 (stereo not drawn) | Human ATX protein (Homo sapiens) | IC50 | ≤ 100 nM
O=C(OCc1cc(C(F)(F)F)cc(C(F)(F)F)c1)N1CCCn2nc(CN[C@H]3CC[C@@H](C(=O)O)CC3)cc2C1 | Human ATX protein (Homo sapiens) | IC50 | ≤ 500 nM
O=C(O)c1nn2c(c1F)CN(C(=O)OCc1cc(Cl)cc(C(F)(F)F)c1)CCC2 | Human ATX protein (Homo sapiens) | IC50 | ≤ 100 nM
CC(c1cc2n(n1)CCCN(C(=O)OCc1cc(Cl)cc(Cl)c1)C2)N1CCCC1 (stereo not drawn) | Human ATX protein (Homo sapiens) | IC50 | ≤ 500 nM
O=C(CN1CCOCC1)c1cc2n(n1)CCN(C(=O)OCc1cc(C(F)(F)F)cc(C(F)(F)F)c1)C2 | Human ATX protein (Homo sapiens) | IC50 | ≤ 100 nM

* * *

Measured pIC50 accompanies every entry in the list below.
Molecular target: Human ATX protein (Homo sapiens, UniProt Q13822)
Construct: made in house
Assay: Autotaxin (ATX) assay, FRET with FS-3 substrate
Type: biochemical
Conditions: upper bound bins (no greater than 100, 250 or 500 nM); FS-3 2 μM, ATX 1.0 μg/mL
pIC50: −log10 of the molar value.

compound | pIC50
CC(c1cc2n(n1)CCCN(C(=O)OCc1cc(C(F)(F)F)cc(C(F)(F)F)c1)C2)N1CCC(F)CC1 (stereo not shown) | ≥ 7.00
O=C(OCc1cc(C(F)(F)F)cc(C(F)(F)F)c1)N1CCCn2nc(CNC3COC3)cc2C1 | ≥ 6.60
O=C(O)C1CC2CCCC(C1)N2C(=O)c1cc2n(n1)CCCN(C(=O)OCc1ccc(Cl)cc1)C2 (stereo not shown) | ≥ 7.00
O=C(O)C1CC2CCCC(C1)N2Cc1cc2n(n1)CCCN(C(=O)OCc1cc(C(F)(F)F)cc(C(F)(F)F)c1)C2 (stereo not shown) | ≥ 6.60
N#CC1CN(C(=O)c2cc3n(n2)CCCN(C(=O)OCc2cc(Cl)cc(C(F)(F)F)c2)C3)CCN1 (stereo not shown) | ≥ 7.00
O=C(OCc1cc(F)cc(C(F)(F)F)c1)N1CCn2cc(C(F)(F)F)nc2C1 | ≥ 6.30
CCC1CC(Nc2cc3n(n2)CCCN(C(=O)OCc2cc(C(F)(F)F)cc(C(F)(F)F)c2)C3)CCN1 (stereo not shown) | ≥ 7.00

* * *

Molecular target: Human ATX protein (Homo sapiens)
Construct: made in house
Assay: Autotaxin (ATX) assay, FRET with FS-3 substrate
Type: biochemical
Conditions: upper bound bins (no greater than 100, 250 or 500 nM); FS-3 2 μM, ATX 1.0 μg/mL
pIC50: −log10 of the molar value.
measured-quantity: pIC50

molecule | value-observed
N#Cc1cc2n(n1)CCCN(C(=O)OCc1cc(F)cc(C(F)(F)F)c1)C2 | ≥ 6.30
CCCNC(=O)c1cc2n(n1)CCN(C(=O)OCc1cc(C(F)(F)F)cc(C(F)(F)F)c1)C2 | ≥ 7.00
CN1C2CCCC1CN(C(=O)c1cc3n(n1)CCCN(C(=O)OCc1cc(C(F)(F)F)cc(C(F)(F)F)c1)C3)C2 | ≥ 7.00
CC1CN(C(=O)c2cc3n(n2)CCN(C(=O)OCc2cc(C(F)(F)F)cc(C(F)(F)F)c2)C3)CC(C)N1C(=O)OC(C)(C)C (centres unmarked) | ≥ 7.00
CC1(C)CC(Nc2cc3n(n2)CCCN(C(=O)OCc2cc(C(F)(F)F)cc(C(F)(F)F)c2)C3)CCN1 (centres unmarked) | ≥ 7.00
O=C(O)C1CC2CCCC(C1)N2C(=O)c1cc2n(n1)CCCN(C(=O)OCc1cc(F)cc(F)c1)C2 (centres unmarked) | ≥ 7.00
O=C(O)C1CC2CCC(C1)N2Cc1cc2n(n1)CCCN(C(=O)OCc1cc(C(F)(F)F)cc(C(F)(F)F)c1)C2 (centres unmarked) | ≥ 6.60
CCOC(=O)c1cc2n(n1)CCCN(C(=O)OCCc1cc(C(F)(F)F)cc(C(F)(F)F)c1)C2 | ≥ 6.30
CC(C)(C)C1CC(Nc2cc3n(n2)CCCN(C(=O)OCc2cc(C(F)(F)F)cc(C(F)(F)F)c2)C3)CCN1 (centres unmarked) | ≥ 7.00
CC(c1cc2n(n1)CCCN(C(=O)OCc1cc(C(F)(F)F)cc(C(F)(F)F)c1)C2)N1CCC(C(=O)O)CC1 (centres unmarked) | ≥ 6.30
O=C(O)C1CC2CCCC(C1)N2C(=O)c1cc2n(n1)CCN(C(=O)OCc1cccc(C(F)(F)F)c1)C2 (centres unmarked) | ≥ 7.00
O=C(OCc1cc(Cl)cc(C(F)(F)F)c1)N1CCCn2nc(C(=O)N3CCNC(C(F)(F)F)C3)cc2C1 (centres unmarked) | ≥ 7.00
O=C(OCc1cc(Cl)cc(C(F)(F)F)c1)N1CCCn2nc(C3CN4CCCC[C@@H]4CO3)cc2C1 (mixture of isomers) | ≥ 7.00
CN1C2C=C(c3cc4n(n3)CCCN(C(=O)OCc3cc(C(F)(F)F)cc(C(F)(F)F)c3)C4)CC1CC2 (centres unmarked) | ≥ 7.00
